- Measurement Description: E. coli growth modulation, two-sided OD650, primary screen, E. coli filamentation project, strain DRC41, 24 h (AID 1093);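 also: MC1000 strain lacking acrAB efflux and sulA so SOS filamentation is blocked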
- Assay Setup: OD650, 24 h, higher = more signal, called active from +8 up or from −8 down
Lab note: anything with z-score at or over 0.1 counts as 1 (yes); the rest go in 0 (no).

Tell me whether z-score is at least 0.1 here: `COCCCNC(=O)[C@@]1(Cc2ccccc2N=[N+]=[N-])N=C(c2ccc(OCCCO)cc2)O[C@H]1c1ccccc1`
1 (yes)

Queued: `COCCOC(=O)N1C(=O)[C@@]2(c3cc(C#CC4=CCCCC4)ccc31)[C@H](c1ccccc1OCCO)N1[C@H](c3ccccc3)[C@H](c3ccccc3)OC(=O)[C@H]1[C@@H]2C(=O)N1CCCCCCC1`
0 (no)

---

- Test system: XIP peptide (Xip251-270)
- Measurement Description: small-molecule binders of XIP peptide, primary screen, biochemical, small-molecule microarray, fluorescence 635/667 nm, 0.5 µg/mL protein (AID 1183)
- Assay Setup: small-molecule microarray binding, fluorescence 635 nm; higher = more signal
Assay Metric: composite z-score
Enter the number alone.

A selection of reference data follows.
- Chem Smiles: "CN(C)CCCCNC(=O)[C@@H]1C[C@@H]2C(=O)N[C@@H](Cc3ccccc3)C(=O)N2[C@@H]1c1cccc(OCCO)c1"
  Target Of Assay: "XIP peptide (Xip251-270)"
  composite z-score: 0.762
- Chem Smiles: "COCCOC(=O)N1C(=O)[C@@]2(c3cc(C#CCC(C(=O)OC)C(=O)OC)ccc31)[C@H](C(=O)N1CCc3cc(OC)c(OC)cc3C1)[C@H]1C(=O)O[C@H](c3ccccc3)[C@H](c3ccccc3)N1[C@@H]2c1ccc(OCCO)cc1"
  Target Of Assay: "XIP peptide (Xip251-270)"
  composite z-score: 0.749

// switching to the query compound
Requested read-out: composite z-score. Entry: `O=c1n(-c2ccccc2)c(=O)n2n1CC(COc1ccccc1)=C([C@H](O)CCc1ccccc1)[C@@H]2CO`
-0.407

---

- Target Of Assay: Left-right determination factor 2 (Homo sapiens)
- Measurement Description: LEFTY2 binders on small-molecule microarrays, primary screen, biochemical, small-molecule microarray, 635 nm fluorescence scan (AID 1110)
- Assay Setup: LEFTY2 binding, higher = more signal
Lab note: anything with composite z-score at or over 0.4 counts as 1; the rest go in 0.

Look over these answered cases.
- Molecule: "O=C1O[C@H](c2ccccc2)[C@H](c2ccccc2)N2[C@H]1[C@@H](C(=O)O)[C@]1(C(=O)Nc3ccc(C#CC4=CCCCC4)cc31)[C@H]2c1ccc(O)cc1"
  Category: 1
- Molecule: "COCCOC(=O)N1C(=O)[C@@]2(c3cc(C#CC4(O)CCCCCC4)ccc31)[C@H](c1ccc(O)cc1)N1[C@H](c3ccccc3)[C@H](c3ccccc3)OC(=O)[C@H]1[C@@H]2C(=O)NC[C@H](O)c1ccccc1"
  Category: 1
- Molecule: "CN(C)C(=O)[C@]1(CCS(=O)(=O)c2ccccc2)N=C(c2ccc(OCCCO)cc2)O[C@@H]1c1ccccc1N=[N+]=[N-]"
  Category: 1
- Molecule: "COC(=O)C1=CC(CCCO)=CC(C2CC2)N(C)C=C1C(=O)OC (configuration not stated)"
  Category: 0
- Molecule: "CCCCO[C@H]1C[C@H]2C(I)=C[C@@H]1C(=O)[C@]21CO1"
  Category: 0

Turning to the following molecule.
Tell me whether composite z-score is at least 0.4 here: `CCOC(=O)C[C@H]1[C@H](OC(=O)Cc2ccc3c(c2)OCO3)[C@@H](NC(=O)CC(C)C)c2cc(OCCCO)ccc2N1C(=O)Cc1ccc(OC)cc1`
0
